- Experimental Protocol: Cell Viability qHTS for small molecule stabilizers of the endoplasmic reticulum resident proteome (AID 1508629);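 note: human SH-SY5Y neuroblastoma cells carrying the GLuc-SERCaMP reporter; compound exposure about 46 h in total before the viability read; % is set by controls: 0 for no effect and ±100 for the full control effect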
- Condition Context: cell viability counter-screen, 100 nM thapsigargin for final 4 h
Records with an inconclusive call do not appear.
Reported Metric: max response (%)
Your answer should be a plain number; it is taken to be in %.

Recorded results for 3 molecules are shown here.
{"Structure Smiles String": "CN1CCN(c2nc(-c3ccccc3C(F)(F)F)nc3ccccc23)CC1", "max response [%]": 16.6}
{"Structure Smiles String": "O=C(Nc1cccc(F)c1)N1CCC2(CC1)CCN(S(=O)(=O)c1ccccc1)CC2", "max response [%]": 3.59}
{"Structure Smiles String": "COc1ccc(CNc2ncnc3ccc(-c4ccccc4CN(C)C)cc23)c(OC)c1", "max response [%]": 6.24}

Q. Which max response is reported for this molecule? `COc1ccc(Oc2ncc3nc(-c4cc(F)cc(F)c4)c(=O)n(CCC#N)c3n2)cc1`
A. -0.74

* * *

Below, each entry is listed alongside its reported activity change, negative = inhibition.
- Experimental Protocol: NFAT Signaling Pathway (AID 444);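 note: carbachol stimulus at about its EC50 of 1 µM final; % is set by controls: 0 for no effect and ±100 for the full control effect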
- Condition Context: Jurkat NFAT-bla M1, carbachol, beta-lactamase ratio, 5 h; at 7.69 µM (top of the series) unless noted
Records with an inconclusive call do not appear.
Your answer should be a plain number; it is taken to be in %.

Recorded results for 5 compounds are shown here.
{"Structure Smiles String": "N#Cc1cccc(-c2cc(NCc3cccs3)ncn2)c1", "activity change, negative = inhibition [%]": 12.6}
{"Structure Smiles String": "COc1ccc(NC(=O)N2CCC3(CC2)CCN(C(=O)c2csnn2)CC3)cc1", "activity change, negative = inhibition [%]": 3.59}
{"Structure Smiles String": "COc1ccc(NC(=O)N2CC[C@@]3(CCCN(C(=O)c4ccc(OC)cc4)C3)C2)cc1", "activity change, negative = inhibition [%]": 10.5}
{"Structure Smiles String": "CN(C)c1ccc(-c2cc(Nc3ccc(F)cc3)ncn2)cc1", "activity change, negative = inhibition [%]": -8.8}
{"Structure Smiles String": "COc1ccc(CNc2cc(-c3ccoc3)ncn2)c(OC)c1", "activity change, negative = inhibition [%]": 0.143}

Q. Which activity change, negative = inhibition is reported for this compound? `COc1ccccc1CN1CC[C@@]2(CCCN(C(=O)c3cccc(F)c3)C2)C1`
A. -10.9

Q. Which activity change, negative = inhibition is reported for this compound? `Cc1noc(C)c1-c1cc(N(C)Cc2ccco2)ncn1`
A. -16

* * *

- Experimental Protocol: Quantitative high throughput screen for delayed death inhibitors of the malarial parasite plastid, 48 hour incubation (AID 488752); note: nearly all actives have a fitted effect of over 65% in size
- Condition Context: Plasmodium falciparum growth; series mostly up to 28.7 µM
- Text: NIH Molecular Libraries Probe Production Network [MLPCN] NIH Chemical Genomics Center [NCGC] Assay Provider: David Fidock and Eric Ekland, Columbia University […] We have developed a cell-based assay that measures parasite growth based on the expression of an integrated copy of a firefly luciferase reporter. […] Growth inhibition is detected by a decrease in luciferase activity […]
Records with an inconclusive call do not appear. Activity calls are given as the source filed them. Calls follow the shape of the dose curve; as a rule, active = well fitted inhibition curve with a large enough effect; inconclusive = small, poorly fitted or top-dose-only effect, or effect the other way; inactive = flat fitted curve, though single readings scatter.
Just give me one of these, please: 1 (active), -1 (inactive)

{"Compound": "CC(O)[C@@H](O)[C@H]1CNc2nc(N)[nH]c(=O)c2N1 (some centres undefined)", "Discrete Label": -1}
{"Compound": "CN(CCOc1ccc(C[C@H](Nc2ccccc2C(=O)c2ccccc2)C(=O)O)cc1)c1ccccn1", "Discrete Label": -1}

Q. Identify the outcome logged in this assay for the compound shown: Nc1nc2c(nc(Br)n2C2O[C@H]3COP(=O)(O)O[C@@H]3C2O)c(=O)[nH]1 (some centres undefined)
A. 1

Q. Identify the outcome logged in this assay for the compound shown: COc1cc(=O)n(C)c2c(OCC(O)C(C)(C)O)cccc12 (centres undefined)
A. -1

Q. Identify the outcome logged in this assay for the compound shown: NCC1OC(O[C@@H]2[C@H](O)[C@@H](OC3C(O)C(N)CC(N)C3OC3OC(CO)C(O)C(O)C3N)O[C@@H]2CO)C(N)C(O)C1O (some centres undefined)
A. -1

Q. Identify the outcome logged in this assay for the compound shown: CC(=O)[C@@]1(O)CC[C@H]2C3CCC4=CC(=O)CC[C@]4(C)C3CC[C@@]21C (some centres undefined)
A. -1

Q. Identify the outcome logged in this assay for the compound shown: CC(N)=NCCCC(N)C(=O)O (centres undefined)
A. -1

Q. Identify the outcome logged in this assay for the compound shown: `CCSC(N)=Nc1ccc(C(F)(F)F)cc1`
A. -1

Q. Identify the outcome logged in this assay for the compound shown: C[C@H]1CC2[C@@H]3CCC4=CC(=O)C=C[C@]4(C)[C@@]3(Cl)[C@@H](O)C[C@]2(C)[C@@]1(O)C(=O)CO (some centres undefined)
A. -1

Q. Identify the outcome logged in this assay for the compound shown: `O=C(Cc1ccc(Cl)c(Cl)c1)OCCN1CCCC1`
A. -1

Q. Identify the outcome logged in this assay for the compound shown: C[C@]12C=CC(=O)C=C1CCC1C2=CC[C@]2(C)[C@@H](C(=O)CN3CCN(c4cc(N5CCCC5)nc(N5CCCC5)n4)CC3)CC[C@@H]12 (some centres undefined)
A. 1

Q. Identify the outcome logged in this assay for the compound shown: `CC(C)CN(C)c1nc(N)c(C(=O)N=C(N)N)nc1Cl`
A. 1

Q. Identify the outcome logged in this assay for the compound shown: CN1C[C@H](C(=O)N[C@]2(C)O[C@@]3(O)C4CCCN4C(=O)[C@H](Cc4ccccc4)N3C2=O)C[C@@H]2c3cccc4[nH]cc(c34)C[C@H]21 (some centres undefined)
A. 1

* * *

- Tested on: CP329
- Experimental Protocol: qHTS profiling for inhibitors of Plasmodium falciparum proliferation (AID 504749); note: nearly all actives have a fitted effect of over 60% in size; note: potency is the fitted concentration of half-maximal effect
- Condition Context: P. falciparum in erythrocytes, SYBR Green DNA, 72 h; series mostly up to 28.7 µM
- Experimental: NIH National Institute of Allergy and Infectious Diseases [NIAID] NIH Chemical Genomics Center [NCGC] […] Because mature erythrocytes lack DNA, only Plasmodium-derived DNA is detected. NCGC Assay Protocol Summary: The SYBR Green viability assay was adapted from a method described previously (Plouffe et al., 2008). […] The following morning, fluorescence intensity at 485(14) nm excitation and 535(25) nm emission wavelengths was measured on an EnVision (Perkin Elmer) plate reader. […]
Inconclusive results are not listed. Active and inactive are the calls of the source. Calls come from the whole dose curve; as a rule, active = well fitted inhibition curve with a large enough effect; inconclusive = small, poorly fitted or top-dose-only effect; inactive = flat fitted curve, though single readings scatter.
Reported Metric: Potency

Recorded results for 6 molecules are shown here.
{"Molecule": "CN=C(N)NCCCC(N)C(=O)O (configuration not stated)", "Subject Of Test": "CP329", "Potency": "inactive"}
{"Molecule": "C=C1/C(=C\\C=C2/CCC[C@]3(C)[C@@H]([C@H](C)CCCC(C)(C)O)CC[C@@H]23)C[C@@H](O)C[C@@H]1O", "Subject Of Test": "CP329", "Potency": "inactive"}
{"Molecule": "CN1C(=O)CCC1c1cccnc1 (configuration not stated)", "Subject Of Test": "CP329", "Potency": "inactive"}
{"Molecule": "COc1ccc(CCNC[C@@H](O)c2ccc(O)cc2)cc1OC", "Subject Of Test": "CP329", "Potency": "inactive"}
{"Molecule": "CO[C@H]1/C=C/O[C@@]2(C)Oc3c(C)c(O)c4c(O)c(c(/C=N\\N5CCN(C6CCCC6)CC5)c(O)c4c3C2=O)NC(=O)/C(C)=C\\C=C\\[C@H](C)[C@H](O)[C@@H](C)[C@@H](O)[C@@H](C)[C@H](OC(C)=O)[C@@H]1C", "Subject Of Test": "CP329", "Potency": "4.78 µM (active)"}
{"Molecule": "C[C@@]12C(=O)OC(=O)[C@]1(C)[C@H]1CC[C@@H]2O1", "Subject Of Test": "CP329", "Potency": "2.56 µM (active)"}

Consider now this further molecule.
Q. Which Potency is reported for this molecule? `Oc1ccc(/C=C\c2cc(O)cc(O)c2)cc1`
A. inactive

* * *

- Experimental Protocol: qHTS for ATAD5 Antagonist screened against the NCATS CANVASS Library (AID 1347370); note: nearly all actives have a fitted effect of over 65% in size
- Condition Context: HEK293T-ATAD5-luc, 5-FUrd stimulated, luminescence, 16 h; series mostly up to 46.1 µM
- Excerpt: Natural products and their derivatives continue to be wellsprings of nascent therapeutic potential. […] To address this issue, the Canvass library of natural products was assembled (https://tripod.nih.gov/canvass), in collaboration with academic and industry researchers, for quantitative high-throughput screening (qHTS) across a diverse set of cell-based and biochemical assays. […] Luminescence intensity is proportional to ATAD5 expression. […]
Inconclusive results are not listed. The source made the active and inactive calls. The call rests on the fitted dose curve; in most records, active means well fitted inhibition curve with a large enough effect; inconclusive means small, poorly fitted or top-dose-only effect; inactive means no such curve, though single readings can be large or run the other way.
Just give me one of these, please: label 1 (active), label 0 (inactive)

{"Structure Smiles String": "CN1CC[C@@]23c4ccccc4N[C@@H]1[C@@]21CCN(C)[C@@H]3Nc2ccccc21", "Discrete Label": "label 0"}
{"Structure Smiles String": "[C-]#[N+][C@@]12C(=O)[C@@H]3[C@@H](O[C@@]4(C(=O)N(C)c5cccc1c54)C3(C)C)C(=O)[C@@]2(C)C=C", "Discrete Label": "label 0"}
{"Structure Smiles String": "CO[C@H]1/C=C/CCCCC(=O)O[C@@H](/C(C)=C/[C@H](C)C(=O)C[C@H](O)CC2CC(=O)NC(=O)C2)[C@@H](C)C1", "Discrete Label": "label 1"}

Now for a further compound.
Q. Identify the outcome logged in this assay for the compound shown: `C=C(C)C(=O)O[C@H]1C[C@@]2(C)OC(=CC2=O)/C(C)=C\[C@H]2OC(=O)C(=C)[C@H]12`
A. label 1

Sourced from PubChem BioAssay (NCATS)
